# experiment summary: Inhibition of LPA-mediated ATX activation in human BJeH cells assessed as ERK phosphorylation level incubated for 30 mins by Western blot analysis
property measured: pEC50
Numbers only, as −log10 of the molar value.

Input C[C@H](CCC(=O)N1CCC(Oc2ccc([B-](F)(F)F)cc2)CC1)[C@H]1CC[C@H]2C3[C@@H](O)C[C@@H]4C[C@H](O)CC[C@]4(C)[C@H]3CC[C@]12C (stereo partly specified) . Output pEC50: 7.00

meta.source: BindingDB's records for PubMed 35440138
